Recorded values, source ChEMBL document CHEMBL5154818.

Recorded IC50 values for a group of compounds are listed next.
System: HepG2
ASSAY_OVERVIEW: Antiproliferative activity against human HepG2 cells after 48 hrs by MTT assay
Assay type: functional, cell-based
CONDITION_PARAMETERS: HepG2, 48 h
ENDPOINT_LABEL: IC50 (µM)

[[record]]
compound = "O=C1c2ccccc2-c2nccc3c(OCCCCn4ccnc4[N+](=O)[O-])ccc1c23"
endpoint_label = "IC50"
endpoint_result = 10.9

[[record]]
compound = "N#Cc1ncn(CCCCCOc2ccc3c4c(nccc24)-c2ccccc2C3=O)c1C#N"
endpoint_label = "IC50"
endpoint_result = 7.29

[[record]]
compound = "O=C1c2ccccc2-c2nccc3c(OCCCCn4cnc(Br)c4)ccc1c23"
endpoint_label = "IC50"
endpoint_result = 7.46

[[record]]
compound = "O=C1c2ccccc2-c2nccc3c(OCCCn4cnc(Br)c4)ccc1c23"
endpoint_label = "IC50"
endpoint_result = 8.12

[[record]]
compound = "O=C1c2ccccc2-c2nccc3c(OCCCn4ccnc4[N+](=O)[O-])ccc1c23"
endpoint_label = "IC50"
endpoint_result = 13.1

[[record]]
compound = "O=C1c2ccccc2-c2nccc3c(OCCCn4cnc([N+](=O)[O-])c4)ccc1c23"
endpoint_label = "IC50"
endpoint_result = 10.5

[[record]]
compound = "CN1CCN(CCOc2ccc3c4c(nccc24)-c2ccccc2C3=O)CC1"
endpoint_label = "IC50"
endpoint_result = 8.19

[[record]]
compound = "O=C1c2ccccc2-c2nccc3cccc1c23"
endpoint_label = "IC50"
endpoint_result = 28.2

[[record]]
compound = "O=C1c2ccccc2-c2nccc3c(OCCCCCn4ccnc4[N+](=O)[O-])ccc1c23"
endpoint_label = "IC50"
endpoint_result = 8.13

[[record]]
compound = "CN1CCN(CCCOc2ccc3c4c(nccc24)-c2ccccc2C3=O)CC1"
endpoint_label = "IC50"
endpoint_result = 9.67

[[record]]
compound = "CC1CCCCN1CCOc1ccc2c3c(nccc13)-c1ccccc1C2=O (configuration not stated)"
endpoint_label = "IC50"
endpoint_result = 4.88

[[record]]
compound = "Cc1cn(CCCOc2ccc3c4c(nccc24)-c2ccccc2C3=O)cn1"
endpoint_label = "IC50"
endpoint_result = 12


* * *

The reader will find reported pIC50 values listed item by item below.
Tested on: NCI/ADR-RES
ASSAY_OVERVIEW: Reversal of multidrug resistant activity in human MCF7/ADR cells after 48 hrs by MTT assay
Format: functional, cell-based
pIC50: −log10 of the molar value.
ENDPOINT_LABEL: pIC50

[[record]]
compound = "CC1CCCCN1CCCCOc1ccc2c3c(nccc13)-c1ccccc1C2=O (stereo not given)"
endpoint_label = "pIC50"
endpoint_result = 5.74

[[record]]
compound = "CN1CCN(CCCCOc2ccc3c4c(nccc24)-c2ccccc2C3=O)CC1"
endpoint_label = "pIC50"
endpoint_result = 5.74

[[record]]
compound = "O=C1c2ccccc2-c2nccc3c(OCCN4CCOCC4)ccc1c23"
endpoint_label = "pIC50"
endpoint_result = 5.00

[[record]]
compound = "CC1CCCCN1CCOc1ccc2c3c(nccc13)-c1ccccc1C2=O (stereo not given)"
endpoint_label = "pIC50"
endpoint_result = 6.05

[[record]]
compound = "COc1ccc(CCN(C)CCCC(C#N)(c2ccc(OC)c(OC)c2)C(C)C)cc1OC (stereo not given)"
endpoint_label = "pIC50"
endpoint_result = 5.55

[[record]]
compound = "CC1CCCCN1CCCOc1ccc2c3c(nccc13)-c1ccccc1C2=O (stereo not given)"
endpoint_label = "pIC50"
endpoint_result = 6.41

[[record]]
compound = "O=C1c2ccccc2-c2nccc3c(OCCCN4CCOCC4)ccc1c23"
endpoint_label = "pIC50"
endpoint_result = 5.74

[[record]]
compound = "CN1CCN(CCOc2ccc3c4c(nccc24)-c2ccccc2C3=O)CC1"
endpoint_label = "pIC50"
endpoint_result = 5.54

[[record]]
compound = "O=C1c2ccccc2-c2nccc3c(OCCCCN4CCOCC4)ccc1c23"
endpoint_label = "pIC50"
endpoint_result = 5.21

[[record]]
compound = "CN1CCN(CCCOc2ccc3c4c(nccc24)-c2ccccc2C3=O)CC1"
endpoint_label = "pIC50"
endpoint_result = 4.94

